Tested on: Mus musculus
assay_text: Antiosteoporosis activity against ovariectomized ICR mouse assessed as dry femur weight at 110.3 nmol/kg, po after 30 mins
Assay type: functional
Peptide text beside a SMILES is read from it. * marks the point of attachment. Succinyl(O17-estradiol) = C[C@]12CC[C@@H]3c4ccc(O)cc4CC[C@H]3[C@@H]1CC[C@@H]2OC(=O)CCC(=O)*; X1 = C[C@]12CC[C@@H]3c4ccc(OCC(=O)*)cc4CC[C@H]3[C@@H]1CCC2=O
property: Activity
Answer with the value and then the unit.

Mus musculus Activity of C[C@]12CC[C@@H]3c4ccc(OCC(=O)N[C@@H](CCCNC(=N)N)C(=O)NCC(=O)N[C@@H](CC(=O)O)C(=O)N[C@@H](Cc5ccccc5)C(=O)N[C@@H](CCCNC(=N)N)C(=O)NCC(=O)N[C@@H](CC(=O)O)C(=O)N[C@@H](Cc5ccccc5)C(=O)O)cc4CC[C@H]3[C@@H]1CCC2=O (X1-RGDFRGDF-OH) is 55.26 mg

# lookup: CC(C)[C@H](NC(=O)[C@H](CC(=O)O)NC(=O)CNC(=O)[C@H](CCCNC(=N)N)NC(=O)COc1ccc2c(c1)CC[C@@H]1[C@@H]2CC[C@]2(C)C(=O)CC[C@@H]12)C(=O)O (X1-RGDV-OH) on Mus musculus, Activity = 54.12 mg

Recorded Activity for C[C@]12CC[C@@H]3c4ccc(O)cc4CC[C@H]3[C@@H]1CC[C@@H]2OC(=O)CCC(=O)N[C@@H](CCCNC(=N)N)C(=O)NCC(=O)N[C@@H](CC(=O)O)C(=O)N[C@@H](CO)C(=O)O ({Succinyl(O17-estradiol)}-RGDS-OH) on Mus musculus was 53.98 mg

Activity for Mus musculus with input C[C@]12CC[C@@H]3c4ccc(OCC(=O)N[C@@H](CCCNC(=N)N)C(=O)NCC(=O)N[C@@H](CC(=O)O)C(=O)N[C@@H](CO)C(=O)N[C@@H](CCCNC(=N)N)C(=O)NCC(=O)N[C@@H](CC(=O)O)C(=O)N[C@@H](CO)C(=O)O)cc4CC[C@H]3[C@@H]1CCC2=O (X1-RGDSRGDS-OH) equals 55.9 mg

* * *

System: Mus musculus
assay_text: Toxicity in ovariectomized ICR mouse assessed as tail bleeding time at 110.3 nmol/kg, po for 30 mins
Assay type: organism-based
condition_info: in vivo, 0.5 h
Numbered stars: 1 amine (or outer) side, 2 acyl side, 3 side chain; on linkers, the order of the positions; unused ones are H or OH. Bridge positions count the residues as written; N and C are the ends. Peptide text beside a SMILES is read from it. I, II: the chains in the order shown. * marks the point of attachment. Estradiol(3-OCH2CO,17-OSuc) = C[C@]12CC[C@@H]3c4ccc(OCC(=O)[*:1])cc4CC[C@H]3[C@@H]1CC[C@@H]2OC(=O)CCC(=O)[*:2]; Succinyl(O17-estradiol) = C[C@]12CC[C@@H]3c4ccc(O)cc4CC[C@H]3[C@@H]1CC[C@@H]2OC(=O)CCC(=O)*; Acetyl(estradiol-3-yloxy) = C[C@]12CC[C@@H]3c4ccc(OCC(=O)*)cc4CC[C@H]3[C@@H]1CC[C@@H]2O; X1 = C[C@]12CC[C@@H]3c4ccc(OCC(=O)*)cc4CC[C@H]3[C@@H]1CCC2=O
Give measured Activity for each item. Keep answers brief.

For record C[C@]12CC[C@@H]3c4ccc(O)cc4CC[C@H]3[C@@H]1CCC2=O the listed Activity is 411 s

The compound listed as CC(C)[C@H](NC(=O)[C@H](CC(=O)O)NC(=O)CNC(=O)[C@H](CCCNC(=N)N)NC(=O)[C@@H](NC(=O)[C@H](CC(=O)O)NC(=O)CNC(=O)[C@H](CCCNC(=N)N)NC(=O)COc1ccc2c(c1)CC[C@@H]1[C@@H]2CC[C@]2(C)C(=O)CC[C@@H]12)C(C)C)C(=O)O (X1-RGDVRGDV-OH) has a reported Activity of 582 s

Data point: CC(C)[C@H](NC(=O)[C@H](CC(=O)O)NC(=O)CNC(=O)[C@H](CCCNC(=N)N)NC(=O)COc1ccc2c(c1)CC[C@@H]1[C@@H]2CC[C@]2(C)C(=O)CC[C@@H]12)C(=O)O (X1-RGDV-OH) ; Activity = 563 s

Reported Activity for CC(C)[C@H](NC(=O)[C@H](CC(=O)O)NC(=O)CNC(=O)[C@H](CCCNC(=N)N)NC(=O)CCC(=O)O[C@H]1CC[C@H]2[C@@H]3CCc4cc(OCC(=O)N[C@@H](CCCNC(=N)N)C(=O)NCC(=O)N[C@@H](CC(=O)O)C(=O)N[C@H](C(=O)O)C(C)C)ccc4[C@H]3CC[C@]12C)C(=O)O (I: RGDV-OH / II: RGDV-OH; linker I:N-II:N via Estradiol(3-OCH2CO,17-OSuc)) was 591 s

The compound listed as CC(C)[C@H](NC(=O)[C@H](CC(=O)O)NC(=O)CNC(=O)[C@H](CCCNC(=N)N)NC(=O)CCC(=O)O[C@H]1CC[C@H]2[C@@H]3CCc4cc(O)ccc4[C@H]3CC[C@]12C)C(=O)O ({Succinyl(O17-estradiol)}-RGDV-OH) has a reported Activity of 551 s

Recorded result, CC(C)[C@H](NC(=O)[C@H](CC(=O)O)NC(=O)CNC(=O)[C@H](CCCNC(=N)N)NC(=O)COc1ccc2c(c1)CC[C@@H]1[C@@H]2CC[C@]2(C)[C@@H](O)CC[C@@H]12)C(=O)O ({Acetyl(estradiol-3-yloxy)}-RGDV-OH) , Activity: 569 s

# Activity of C[C@]12CC[C@@H]3c4ccc(OCC(=O)N[C@@H](CCCNC(=N)N)C(=O)NCC(=O)N[C@@H](CC(=O)O)C(=O)N[C@@H](Cc5ccccc5)C(=O)O)cc4CC[C@H]3[C@@H]1CC[C@@H]2OC(=O)CCC(=O)N[C@@H](CCCNC(=N)N)C(=O)NCC(=O)N[C@@H](CC(=O)O)C(=O)N[C@@H](Cc1ccccc1)C(=O)O (I: RGDF-OH / II: RGDF-OH; linker I:N-II:N via Estradiol(3-OCH2CO,17-OSuc)) = 522 s

Activity for C[C@]12CC[C@@H]3c4ccc(OCC(=O)N[C@@H](CCCNC(=N)N)C(=O)NCC(=O)N[C@@H](CC(=O)O)C(=O)N[C@@H](CO)C(=O)O)cc4CC[C@H]3[C@@H]1CCC2=O (X1-RGDS-OH) is 579 s

Entry C[C@]12CC[C@@H]3c4ccc(O)cc4CC[C@H]3[C@@H]1CC[C@@H]2OC(=O)CCC(=O)N[C@@H](CCCNC(=N)N)C(=O)NCC(=O)N[C@@H](CC(=O)O)C(=O)N[C@@H](CO)C(=O)O ({Succinyl(O17-estradiol)}-RGDS-OH) — recorded Activity = 575 s

Looking up C[C@]12CC[C@@H]3c4ccc(OCC(=O)N[C@@H](CCCNC(=N)N)C(=O)NCC(=O)N[C@@H](CC(=O)O)C(=O)N[C@@H](CO)C(=O)O)cc4CC[C@H]3[C@@H]1CC[C@@H]2O ({Acetyl(estradiol-3-yloxy)}-RGDS-OH) , I see its Activity listed as 582 s

Input C[C@]12CC[C@@H]3c4ccc(OCC(=O)N[C@@H](CCCNC(=N)N)C(=O)NCC(=O)N[C@@H](CC(=O)O)C(=O)N[C@@H](Cc5ccccc5)C(=O)N[C@@H](CCCNC(=N)N)C(=O)NCC(=O)N[C@@H](CC(=O)O)C(=O)N[C@@H](Cc5ccccc5)C(=O)O)cc4CC[C@H]3[C@@H]1CCC2=O (X1-RGDFRGDF-OH) . Output Activity: 579 s

For reference, reported Activity for C[C@]12CC[C@@H]3c4ccc(OCC(=O)N[C@@H](CCCNC(=N)N)C(=O)NCC(=O)N[C@@H](CC(=O)O)C(=O)N[C@@H](CO)C(=O)O)cc4CC[C@H]3[C@@H]1CC[C@@H]2OC(=O)CCC(=O)N[C@@H](CCCNC(=N)N)C(=O)NCC(=O)N[C@@H](CC(=O)O)C(=O)N[C@@H](CO)C(=O)O (I: RGDS-OH / II: RGDS-OH; linker I:N-II:N via Estradiol(3-OCH2CO,17-OSuc)) stands at 580 s

# Activity of C[C@]12CC[C@@H]3c4ccc(O)cc4CC[C@H]3[C@@H]1CC[C@@H]2O = 417 s

get_value(item= C[C@]12CC[C@@H]3c4ccc(OCC(=O)N[C@@H](CCCNC(=N)N)C(=O)NCC(=O)N[C@@H](CC(=O)O)C(=O)N[C@@H](Cc5ccccc5)C(=O)O)cc4CC[C@H]3[C@@H]1CCC2=O (X1-RGDF-OH) , readout=Activity) returns 581 s

Memo: C[C@]12CC[C@@H]3c4ccc(OCC(=O)N[C@@H](CCCNC(=N)N)C(=O)NCC(=O)N[C@@H](CC(=O)O)C(=O)N[C@@H](CO)C(=O)N[C@@H](CCCNC(=N)N)C(=O)NCC(=O)N[C@@H](CC(=O)O)C(=O)N[C@@H](CO)C(=O)O)cc4CC[C@H]3[C@@H]1CCC2=O (X1-RGDSRGDS-OH) , reported Activity: 588 s

The origin of these recorded values is ChEMBL document CHEMBL1151896.
